Experiment: qHTS assay to identify small molecule antagonists of the estrogen related receptor (ERR) signaling pathway - cell viability counter screen (AID 1224818);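 note: viability measured after 17.5 h of compound exposure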
Settings: ERR reporter cell line viability counter screen; series mostly up to 46.1 µM
Inconclusive results are not listed. Calls of active or inactive are those of the source. Calls come from the whole dose curve; as a rule, active = well fitted cell-killing curve with a large enough effect in the repeat runs; inconclusive = weak or mixed curves; inactive = flat fitted curve, though single readings scatter.
A correct response names exactly one class from active, inactive

// param item: Cc1cc2c(C(C)C)c(O)c(O)c(C=O)c2c(O)c1-c1c(C)cc2c(C(C)C)c(O)c(O)c(C=O)c2c1O ; yields the recorded call
active

// param item: CCN(CC)CCCN(c1ccccc1)C1Cc2ccccc2C1 ; yields the recorded call
inactive

// param item: Clc1ccc(C(c2ccccc2Cl)C(Cl)Cl)cc1 (centres undefined) ; yields the recorded call
inactive

// param item: CC(C)OC(=O)c1cc(C(=O)OC(C)C)cc([N+](=O)[O-])c1 ; yields the recorded call
inactive

----------
Assay: qHTS assay to identify small molecule agonists of the sonic hedgehog signaling (Shh) pathway - cell viability counter screen (AID 1259366); note: nearly all actives have a fitted effect of over 50% in size
Conditions: NIH/3T3 Gli1-Luc viability, CellTiter-Fluor, 24 h; series mostly up to 92.4 µM
Records with an inconclusive call do not appear. Calls of active or inactive are those of the source. The call rests on the fitted dose curve; in most records, active means well fitted cell-killing curve with a large enough effect in the repeat runs; inconclusive means weak or mixed curves, or effect the other way; inactive means flat fitted curve, though single readings scatter.
A correct response names exactly one class from active, inactive

// param item: Oc1cc2ccccc2cc1O ; yields the recorded call
inactive

// param item: CO[Si](CCC1CCC2OC2C1)(OC)OC (configuration not stated) ; yields the recorded call
inactive

// param item: Clc1cccnc1 ; yields the recorded call
inactive

// param item: CCN(CC)c1cccc(C)c1 ; yields the recorded call
inactive

// param item: CCCCN(C)C ; yields the recorded call
inactive

// param item: Cc1ccc(-n2[nH]c(C)c(N=Nc3cccc(-c4cccc(C(=O)O)c4)c3O)c2=O)cc1C ; yields the recorded call
inactive

// param item: CC(C)(C)CC(C)(C)c1ccccc1O ; yields the recorded call
active

// param item: CCO[Si](C)(C)OCC ; yields the recorded call
inactive

// param item: CC(C)(C)c1cc(/C=C2\SC(=N)NC2=O)cc(C(C)(C)C)c1O ; yields the recorded call
inactive

// param item: c1cc[nH]c1 ; yields the recorded call
inactive

// param item: SCCCCCCCCS ; yields the recorded call
inactive

// param item: C[C@H]1O[C@@H](O[C@H]2[C@@H](O)C[C@H](O[C@H]3[C@@H](O)C[C@H](O[C@H]4CC[C@@]5(C)[C@H](CC[C@@H]6[C@@H]5C[C@@H](O)[C@]5(C)[C@@H](C7=CC(=O)OC7)CC[C@]65O)C4)O[C@@H]3C)O[C@@H]2C)C[C@H](O)[C@@H]1O ; yields the recorded call
inactive

----------
Assay: qHTS assay to identify small molecule antagonists of the peroxisome proliferator-activated receptor delta (PPARd) signaling pathway - cell viability counter screen (AID 743213); note: nearly all actives have a fitted effect of over 50% in size
Conditions: PPARd-bla HEK293H viability, CellTiter-Glo luminescence, 17 h; series mostly up to 62 µM
Results filed as inconclusive are left out. Activity calls are given as the source filed them. The call rests on the fitted dose curve; in most records, active means well fitted cell-killing curve with a large enough effect in the repeat runs; inconclusive means weak or mixed curves; inactive means no such curve, though single readings can be large or run the other way.
A correct response names exactly one class from active, inactive

// param item: N#CSCSc1nc2ccccc2s1 ; yields the recorded call
active

// param item: CNCC[C@H](Oc1cccc2ccccc12)c1cccs1 ; yields the recorded call
active

// param item: COc1cc(C=C2CCC/C(=C\c3ccc(O)c(OC)c3)C2=O)ccc1O ; yields the recorded call
active

// param item: Cc1occc1SSc1ccoc1C ; yields the recorded call
inactive

// param item: COc1ccc2sc(C(=O)Nc3nnn[nH]3)c(OC(C)C)c2c1 ; yields the recorded call
inactive

// param item: CC(COC(=O)c1ccccc1)OC(=O)c1ccccc1 (configuration not stated) ; yields the recorded call
inactive

// param item: Cc1cn[nH]c1 ; yields the recorded call
inactive

----------
Target: Nuclear receptor ROR-gamma (Homo sapiens) (UniProt P51449)
Test: qHTS assay to identify small molecule antagonists of the retinoid-related orphan receptor gamma (ROR-gamma) signaling pathway (AID 1159521; note: nearly all actives have a fitted effect of over 50% in size)
Conditions: Tet-on RORgamma CHO cells, RORE-luciferase, 16 h; series mostly up to 92.4 µM
Records with an inconclusive call do not appear. Calls of active or inactive are those of the source. Calls follow the shape of the dose curve; as a rule, active = well fitted inhibition curve with a large enough effect in the repeat runs; inconclusive = weak or mixed curves, or effect the other way; inactive = no such curve, though single readings can be large or run the other way.
A correct response names exactly one class from active, inactive

// param item: c1cc2c3c(c1)ccc1cccc(c13)C2 ; yields the recorded call
inactive

// param item: CCc1cccc(C)c1 ; yields the recorded call
inactive

// param item: OCCC(O)CO (centres undefined) ; yields the recorded call
inactive

// param item: O=C1Nc2ccc(Cl)cc2[C@@](C#CC2CC2)(C(F)(F)F)O1 ; yields the recorded call
inactive

// param item: Clc1cc(Cl)c(-c2c(Cl)c(Cl)cc(Cl)c2Cl)cc1Cl ; yields the recorded call
inactive

// param item: COC(=O)CC(C)CCC=C(C)C (centres undefined) ; yields the recorded call
inactive

// param item: CCCCN(CCCC)CCC(O)c1cc2c(Cl)cc(Cl)cc2c2cc(C(F)(F)F)ccc12 (centres undefined) ; yields the recorded call
active

// param item: Cc1cc(=O)[nH]c(=O)[nH]1 ; yields the recorded call
inactive

// param item: CCCCCCCC/C=C\CCCCCCCC(=O)N(C)CC(=O)O ; yields the recorded call
inactive

// param item: CN(C)c1ccc(N=Nc2ccccc2C(=O)O)cc1 ; yields the recorded call
active

// param item: Cc1ccc(O)cn1 ; yields the recorded call
inactive

// param item: Oc1cc2ccccc2cc1O ; yields the recorded call
inactive

// param item: C=C(C)C(=O)OCCC[Si](Cl)(Cl)Cl ; yields the recorded call
inactive

// param item: CCOC(=O)CN ; yields the recorded call
inactive

----------
Test: A CellTox Green Cytotoxicity Assay to monitor cytotoxicity in HEK293 cells - 0 hour (AID 1224869); note: nearly all actives have a fitted effect of over 50% in size
Conditions: CellTox Green fluorescence; series mostly up to 76.8 µM
Activity calls are given as the source filed them. The call rests on the fitted dose curve; in most records, active means well fitted activation curve with a large enough effect in the repeat runs; inconclusive means weak or mixed curves; inactive means flat fitted curve, though single readings scatter.
measurement-label: cytotoxicity

Use the examples below as a reference point.
smiles-string	measurement-label	reported-result
CCCCCCCCCC(=O)N(C)C	cytotoxicity	inactive
Brc1ccccc1-c1ccccc1	cytotoxicity	inactive
Cc1ccc(N)cc1O	cytotoxicity	inactive
CCc1ccc(O)c(C(C)(C)C)c1	cytotoxicity	inactive
C[C@]12CC[C@H]3C(=CCc4cc(O)ccc43)[C@@H]1CCC2=O	cytotoxicity	inactive

cytotoxicity lookup needed for C=C(C)C(=O)OCCC[Si](Cl)(Cl)Cl , thanks.
inactive

cytotoxicity lookup needed for O=C(Nc1ccc(Cl)c(Cl)c1)c1cc(Cl)cc(Cl)c1O , thanks.
inactive

cytotoxicity lookup needed for CCCSS/C(CCO)=C(\C)N(C=O)Cc1cnc(C)nc1N , thanks.
inactive

cytotoxicity lookup needed for O=C1c2c(O)ccc(O)c2C(=O)c2c(NCCNCCO)ccc(NCCNCCO)c21 , thanks.
inactive

cytotoxicity lookup needed for C[C@H]1O[C@@H](O[C@H]2[C@@H](O)C[C@H](O[C@H]3[C@@H](O)C[C@H](O[C@H]4CC[C@@]5(C)[C@H](CC[C@@H]6[C@@H]5C[C@@H](O)[C@]5(C)[C@@H](C7=CC(=O)OC7)CC[C@]65O)C4)O[C@@H]3C)O[C@@H]2C)C[C@H](O)[C@@H]1O , thanks.
inactive

----------
Assay: qHTS assay for identifying genotoxic compounds that show differential cytotoxicity against isogenic chicken DT40 cell lines with known DNA damage response pathways - Rev3 mutant cell line (AID 743014); note: nearly all actives have a fitted effect of over 55% in size
Conditions: chicken DT40 Rev3-/- viability, CellTiter-Glo, 40 h; series mostly up to 68.4 µM
Records with an inconclusive call do not appear. Activity calls are given as the source filed them. Calls follow the shape of the dose curve; as a rule, active = well fitted cell-killing curve with a large enough effect in the repeat runs; inconclusive = weak or mixed curves, or effect the other way; inactive = no such curve, though single readings can be large or run the other way.
A correct response names exactly one class from active, inactive

// param item: O=C1c2c(O)ccc(O)c2C(=O)c2c(NCCNCCO)ccc(NCCNCCO)c21 ; yields the recorded call
active

// param item: CCN=C1C=CC(=C(c2ccc(N(CC)CC)cc2)c2ccc(N(CC)CC)cc2)c2ccccc21 ; yields the recorded call
active

// param item: c1cc(OCC2CO2)cc(OCC2CO2)c1 (configuration not stated) ; yields the recorded call
active

// param item: O[C@@H](c1cc(C(F)(F)F)nc2c(C(F)(F)F)cccc12)[C@H]1CCCCN1 ; yields the recorded call
active

// param item: [O]=[Zr] ; yields the recorded call
inactive

// param item: CC(COC(=O)c1ccccc1)OC(=O)c1ccccc1 (configuration not stated) ; yields the recorded call
inactive

// param item: C/C=C/C(=O)Oc1c(CCCCCC(C)C)cc([N+](=O)[O-])cc1[N+](=O)[O-] ; yields the recorded call
active

// param item: CCC(C)(C)c1cc(O)c(C(C)(C)CC)cc1O ; yields the recorded call
active

// param item: CCCCCCCCCCCCCCCC ; yields the recorded call
inactive

// param item: Cc1cccc(C)c1NC(=O)CN1CCN(CCCC(c2ccc(F)cc2)c2ccc(F)cc2)CC1 ; yields the recorded call
active

// param item: CCN(CC)CCCN(c1ccccc1)C1Cc2ccccc2C1 ; yields the recorded call
active

// param item: C1CC(COCC2CO2)CCC1COCC1CO1 (configuration not stated) ; yields the recorded call
active

// param item: NC(=O)c1ccccc1N ; yields the recorded call
inactive

// param item: C=CC(=O)OCCOCC(CC)(COCCOC(=O)C=C)COCCOC(=O)C=C ; yields the recorded call
active

// param item: CCCSS/C(CCO)=C(\C)N(C=O)Cc1cnc(C)nc1N ; yields the recorded call
active

// param item: CC(C)=C1CC[C@@H](C)CC1=O ; yields the recorded call
inactive

// param item: O=S(=O)(O)CCCN1CCOCC1 ; yields the recorded call
inactive

// param item: CC(C)(C)c1cc(/C=C2\SC(=N)NC2=O)cc(C(C)(C)C)c1O ; yields the recorded call
active

// param item: CC(=O)Nc1ccc(O)cc1 ; yields the recorded call
inactive

// param item: Clc1ccccc1CN1CCc2sccc2C1 ; yields the recorded call
active

// param item: CCCCCCCCCCOCC(O)CN (configuration not stated) ; yields the recorded call
active

// param item: CC(C)c1cccc(C(C)C)c1N1C(=O)c2ccc(O)cc2C1=O ; yields the recorded call
active

// param item: COC(=O)CC#N ; yields the recorded call
inactive

// param item: CCN(CC)CCOC(=O)C1(C2CCCCC2)CCCCC1 ; yields the recorded call
active

// param item: C[Si](C)(C)Cl ; yields the recorded call
inactive

// param item: CN(Cc1cc(Br)cc(Br)c1N)C1CCCCC1 ; yields the recorded call
active

// param item: CCCCOc1ccc(C(=O)CCN2CCCCC2)cc1 ; yields the recorded call
active

// param item: Oc1ccc(-c2ccc(O)cc2)cc1 ; yields the recorded call
active

// param item: Cc1occc1SSc1ccoc1C ; yields the recorded call
active

// param item: ClC/C=C\CCl ; yields the recorded call
inactive

// param item: CCCCCCCCCCCCN(CCO)CCO ; yields the recorded call
active

// param item: CCCOc1sc(C(=O)N2CCC(c3cc(CN)ccc3F)CC2)c(C)c1Br ; yields the recorded call
active

// param item: COC(=O)NCCC[Si](OC)(OC)OC ; yields the recorded call
active

// param item: C[C@@]12C(=O)OC(=O)[C@]1(C)C1CCC2O1 ; yields the recorded call
inactive

// param item: CC(C(O)c1ccccc1)N(C)CCOC(c1ccccc1)c1ccccc1 (configuration not stated) ; yields the recorded call
active

// param item: CCCCOC(=O)C(C)CC (configuration not stated) ; yields the recorded call
active

// param item: CCCCCCOc1cc(C)c(O)c(C)c1C ; yields the recorded call
active

// param item: O=C1OC(OC(=O)c2cccnc2Nc2cccc(C(F)(F)F)c2)c2ccccc21 (configuration not stated) ; yields the recorded call
inactive

// param item: CN(C)CCCN1c2ccccc2Sc2ccc(C(F)(F)F)cc21 ; yields the recorded call
active

// param item: O=C(O)CC(=O)O ; yields the recorded call
inactive

// param item: CC=O ; yields the recorded call
active

// param item: CCCCCCC(C)OC(=O)COc1nc(F)c(Cl)c(N)c1Cl (configuration not stated) ; yields the recorded call
active

// param item: CCCCCCCOC(=O)c1ccc(O)cc1 ; yields the recorded call
active

// param item: CCOC(=O)C1=C(C)NC(C)=C(C(=O)OCC)C1c1ccccc1/C=C/C(=O)OC(C)(C)C ; yields the recorded call
active

// param item: COCC(=O)O[C@]1(CCN(C)CCCc2nc3ccccc3[nH]2)CCc2cc(F)ccc2[C@@H]1C(C)C ; yields the recorded call
active

// param item: C=C(C)C(=O)OCCC[Si](Cl)(Cl)Cl ; yields the recorded call
inactive

// param item: CCCCCCC(C)Nc1ccc(Nc2ccccc2)cc1 (configuration not stated) ; yields the recorded call
active
